B1: library; numbered along this chain (parent)
chain: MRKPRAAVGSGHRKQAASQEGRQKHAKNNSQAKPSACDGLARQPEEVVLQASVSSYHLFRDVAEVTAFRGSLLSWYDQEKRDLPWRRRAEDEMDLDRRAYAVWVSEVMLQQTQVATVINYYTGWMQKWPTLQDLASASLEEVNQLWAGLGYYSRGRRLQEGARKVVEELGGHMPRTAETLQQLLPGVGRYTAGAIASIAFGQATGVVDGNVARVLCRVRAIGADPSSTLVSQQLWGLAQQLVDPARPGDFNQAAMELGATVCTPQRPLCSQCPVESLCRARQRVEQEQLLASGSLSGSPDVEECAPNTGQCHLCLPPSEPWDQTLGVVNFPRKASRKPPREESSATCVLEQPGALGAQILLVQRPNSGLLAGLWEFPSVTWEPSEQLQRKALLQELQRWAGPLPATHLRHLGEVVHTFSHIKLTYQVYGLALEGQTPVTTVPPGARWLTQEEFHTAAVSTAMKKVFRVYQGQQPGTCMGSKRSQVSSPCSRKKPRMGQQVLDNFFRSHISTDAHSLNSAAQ

Variants of: B1
Experiment: 8OG:A repair function score (normalized; synonymous = 0, nonsense = -1) (normalized log-likelihood score); higher = more repair activity (WT-like);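 also: cells sorted at 72 h after reporter transfection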
Settings: with 8OG:A DNA repair reporter (GFP) in HEK-293 MUTYH KO cells
Quick rule: 8OG:A repair function score of at least -0.4 means fulfilled, below that means not fulfilled.

Observe how each entry below is paired with its result.
R446D | not fulfilled
L349R | not fulfilled
P488A | fulfilled

Exercise: Is reported 8OG:A repair function score greater than or equal to -0.4 here: P34I
Key: fulfilled

Exercise: Try this variant too: T179S
Key: fulfilled

The measured values listed here are drawn from the supplement of paper PMC11908140.
